Molecular target: A2AR (human A2A receptor) (Homo sapiens, UniProt P29274)
Sequence (P29274 whole entry): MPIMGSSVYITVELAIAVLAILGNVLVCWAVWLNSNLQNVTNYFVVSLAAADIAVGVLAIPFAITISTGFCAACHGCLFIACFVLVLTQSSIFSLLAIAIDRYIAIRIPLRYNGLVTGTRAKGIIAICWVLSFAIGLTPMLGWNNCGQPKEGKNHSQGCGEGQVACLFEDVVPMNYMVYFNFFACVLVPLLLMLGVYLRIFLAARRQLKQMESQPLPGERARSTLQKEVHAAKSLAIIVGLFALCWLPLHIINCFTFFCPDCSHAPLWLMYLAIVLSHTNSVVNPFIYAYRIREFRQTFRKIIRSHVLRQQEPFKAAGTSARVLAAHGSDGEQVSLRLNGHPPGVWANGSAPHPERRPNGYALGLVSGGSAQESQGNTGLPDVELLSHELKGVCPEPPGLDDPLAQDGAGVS
metric_name: IC50 (µM)

>>> print(df.to_string())
           record_smiles  quantitative_readout
0  O=C(Nc1nncs1)c1cccnc1                    20

====

Target: A2AR (human A2A receptor) (Homo sapiens)
pKd: −log10 of the molar value.
metric_name: pKd

                          compound  metric_name  quantitative_readout
0  O=C(Nc1nncs1)c1cccnc1 [TGN-020]          pKd                  4.27

====

Molecular target: recombinant hAQP4 (AQP4) (Homo sapiens)
Sequence (P55087 whole entry): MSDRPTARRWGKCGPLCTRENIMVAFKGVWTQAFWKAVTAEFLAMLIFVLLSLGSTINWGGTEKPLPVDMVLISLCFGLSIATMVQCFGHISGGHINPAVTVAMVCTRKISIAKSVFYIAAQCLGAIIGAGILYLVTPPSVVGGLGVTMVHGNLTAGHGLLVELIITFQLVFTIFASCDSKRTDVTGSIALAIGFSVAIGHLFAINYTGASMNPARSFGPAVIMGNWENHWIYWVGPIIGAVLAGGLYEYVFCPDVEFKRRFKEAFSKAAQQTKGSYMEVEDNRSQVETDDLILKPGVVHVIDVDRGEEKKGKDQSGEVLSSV
Assay: biochemical
metric_name: Kd

                              record_smiles  result
0  O=C(Nc1cc(C(F)(F)F)cc(C(F)(F)F)c1)c1cc(Cl)ccc1O   17 µM

The reported measurements were obtained from paper doi:10.1101/2024.12.04.625365v1.
